Each recorded value in this set is attributed to a melting point compilation (Tetko et al.; mined from patent text by program, amines drawn as free bases though some values may be those of a salt).

Measured melting point, listed per entry.

Known melting point results, listed for orientation:
COC(=O)C1=C(O)CCc2ccc(OC)cc21 = 48 to 48.5 °C
Cc1nc2cccc(S(=O)(=O)n3c(COC(C)(C)C(=O)O)cc4cc(Cl)ccc43)c2s1 = 128 to 130 °C
CCOC(=O)Nc1cccc(C(=O)Nc2ccc3ccc(OC)nc3n2)c1 = 120 °C
Cn1ccc(-c2ccc(C(=O)N3Cc4cccnc4Nc4ccccc43)c(Cl)c2)n1 = 196 to 197 °C
CC(C)Oc1ccc(-n2c(C(=O)NCCNC(=O)OC(C)(C)C)c(Cl)c3cc(Oc4ccc(C(F)(F)F)cn4)ccc32)cc1 = 184 to 185 °C
O=C1c2ccccc2C(=O)N1c1ccc(Cl)cn1 = 153 to 155 °C

Then this compound:
# melting point (compound: CC1(C)OC(=O)c2c(cccc2OS(=O)(=O)C(F)(F)F)O1 ) is 115 °C

###

Measured melting point, listed per entry.

Known melting point results, listed for orientation:
CN(C(=O)CNC(=O)OC(C)(C)C)c1ccc(OCC(=O)O)cc1 = 146 to 155 °C
CC(=O)NCc1ccc(/C=C/C(c2cc(Cl)cc(Cl)c2)C(F)(F)F)cc1Cl (configuration not stated) = 127 to 128 °C
CCCCCc1cc2c(nc(O)n2CCc2ccccc2)c(N)n1 = 238 to 240 °C
CCC(=O)Oc1cccc2c(-c3ccccc3)c3cccc(OC(=O)CC)c3c(OC(=O)CC)c12 = 216 °C
Cc1oc(-c2ccc(C(F)(F)F)cc2)nc1COc1cccc(CN(O)C(N)=O)c1 = 125 to 126 °C

# melting point (compound: COCCOc1ccc(/C=C/C(=O)O)c(OCC2CCCCC2)c1 ) is 112 °C

# melting point (compound: Cc1ccc2c(c1)C=Cc1cc(C)ccc1C2c1cn(Cc2ccc(C(=O)Nc3nc(CC(=O)Nc4nc(CC(=O)O)cs4)cs3)o2)c(=O)[nH]c1=S ) is 253 °C

# melting point (compound: Cc1ccc(-n2nc(C(F)F)cc2-c2ccc(S(C)(=O)=O)cc2)cc1F ) is 161 to 162 °C

###

Measured melting point, listed per entry.

Known melting point results, listed for orientation:
Cc1nnc(NCCNC2CN3CCC2CC3)c2cc3ccccn3c12 (stereo not drawn) = 205 to 208 °C
CNc1c(F)cc2c(=O)c(C(=O)O)cn(-c3cc(N)c(F)cc3Cl)c2c1Cl = 273 °C
O=c1c2c(Cc3cccs3)n[nH]c2c2cccnc2n1-c1cccc(OC(F)(F)F)c1 = 234 to 238 °C

# melting point (molecule: O=C1CCc2cc(Cl)ccc2C(=O)CCCN1 ) is 142 to 144 °C

# melting point (molecule: CC(CC(=O)O)CC(=O)c1ccc(N2CCC(c3ccccc3)CC2)cc1 (stereo not drawn) ) is 134 to 135 °C

###

Measured melting point, listed per entry.

COC(=O)c1sccc1NS(=O)(=O)c1nc2nc(C3CC3)cc(C)n2n1 = 133 to 134 °C
CCNC(=O)c1ccccc1Nc1nc(Nc2cc3c(cc2OC)CC(=O)NCC3)ncc1Cl = > 250 °C

Then this compound:
# melting point (compound: CCOC(=O)c1nnc2ccc(-c3cccs3)cc2c1O ) is 258 to 260 °C

###

endpoint: melting point

Known melting point results, listed for orientation:
C=CCc1ccc(OCc2ccc(OC)cc2)cc1 = 59 to 61 °C
CC(=O)C1=C(O)C(=C(C)Nc2cccc(NS(=O)(=O)c3ccccc3)c2)C(=O)OC1=O = 209 °C

Then this compound:
# melting point (compound: COc1cc(Br)ccc1N ) is 56.5 to 58 °C

###

endpoint: melting point

Known melting point results, listed for orientation:
Cc1cc(C(=O)NC2=NC(C)(C)CC2(c2ccccc2)c2ccccc2)[nH]n1 = 193 to 195 °C
Cc1cc2c(-c3cccc(C(F)(F)F)c3)nc(Cl)nc2s1 = 108 °C
CSc1cccc(NC(C)=N)c1 = 134 to 135 °C
Cc1nc(-c2ccccc2)nc(-c2cccc([N+](=O)[O-])c2)c1CN1CCN(C)CC1 = 138 to 140 °C

# melting point (molecule: CNS(=O)(=O)CCS(C)(=O)=O ) is 116 to 117 °C

# melting point (molecule: CC1(C)Cc2c(c(N3CCOCC3)nc3sc4c(NCC(=O)N5CCOCC5)ncnc4c23)CO1 ) is 209 to 210 °C

# melting point (molecule: O=C(O)c1cc(S(=O)(=O)Oc2ccc(-c3ccc(-c4c(Cc5ccccc5)oc5ccccc45)cc3)cc2)ccc1O ) is 171 to 173 °C

###

Measured melting point, listed per entry.

# melting point (compound: COc1cc2c3c(n(C)c(=O)c2cc1OC)-c1cc2c(cc1C3=CCCCBr)OCO2 ) is 197 to 199 °C

###

Measured melting point, listed per entry.

Known melting point results, listed for orientation:
Cc1ccc(F)c(-n2cnc(-c3cnc4[nH]cc(C(=O)N[C@@H](C)C(C)(C)C)c4n3)c2)c1 = 331 to 332 °C
NS(=O)(=O)c1ccc(-n2nc(C(F)(F)F)cc2-c2ccc(-c3cscn3)cc2)cc1F = 168 to 170 °C

Then this compound:
# melting point (compound: CCCn1nc(-c2ccc(O)cc2)c2cccc(-c3ccccc3)c21 ) is 171 to 172 °C

###

endpoint: melting point

# melting point (compound: CC(=O)SCCC(=O)N1c2ccccc2CCC1C(=O)O (stereo not drawn) ) is 89 to 91 °C

# melting point (compound: Cc1cccc(C(O)CNC2=NCCN2)c1 (stereo not drawn) ) is 121 °C

# melting point (compound: CC(=Cc1cn(C)c2ccc3c(c12)CCCO3)[N+](=O)[O-] ) is 200 to 202 °C

# melting point (compound: Cc1oc(-c2ccccc2)nc1CCc1noc2cc(CC(Sc3ccccc3)C(=O)O)ccc12 (stereo not drawn) ) is 145 to 147 °C

# melting point (compound: O=C1CC2(CN1)CC(=O)c1cc(Cl)cc(Cl)c12 (stereo not drawn) ) is 226 to 228 °C

# melting point (compound: CC1(C)CNS(=O)(=O)N1 ) is 80 to 83 °C

# melting point (compound: CCNCC1Cc2cc(F)cc(-c3c(Cl)cccc3Cl)c2O1 (stereo not drawn) ) is 138 °C

# melting point (compound: COc1ccc(-c2nc(N)sc2-c2cccnc2)cc1 ) is 265 to 266 °C

###

Measured melting point, listed per entry.

Known melting point results, listed for orientation:
CCN(CC)C(=S)c1c(C)cccc1[Si](C)(C)C = 82 to 83 °C
COc1cc(Nc2c(C#N)cnc3cc(-c4coc(CN5CCN(C)CC5)c4)c(OC)cc23)c(Cl)cc1Cl = 179 to 181 °C
COCc1ccsc1-c1nsc2ccc(-n3c(=O)cc(C(F)(F)F)n(C)c3=O)cc12 = 131 to 133 °C

# melting point (molecule: N=C(N)c1ccc(-c2ccc(N3CCN(CCC(=O)O)C3=O)cc2)cc1 ) is > 200 °C

# melting point (molecule: COc1ccc(C=C2OC(=O)c3ccccc32)cc1[N+](=O)[O-] ) is 173 to 181 °C

# melting point (molecule: Cc1ccc2cc([N+](=O)[O-])c3ccc(C)nc3c2n1 ) is 184 to 186 °C

# melting point (molecule: Cc1c(C2=NC(C)(C)CO2)cccc1[N+](=O)[O-] ) is 60 to 61 °C

# melting point (molecule: Cc1ncccc1CC(=NC#N)NC(NC(=O)Cc1ccc2ncccc2c1)C(C)(C)C (stereo not drawn) ) is 132 to 134 °C

# melting point (molecule: CCOC(OCC)c1nc(N)nc(N)c1-c1cccc(Cl)c1Cl ) is 214 to 217 °C

# melting point (molecule: O=[N+]([O-])c1ccc2c(c1)CN(C(c1ccccc1)c1ccccc1)C2 ) is 154 to 155 °C

# melting point (molecule: Nc1cccc(S(=O)(=O)NCc2cccnc2)c1 ) is 129 °C

# melting point (molecule: CNC1=NN(c2ccc(Cl)cc2)C(C)C1 (stereo not drawn) ) is 102 to 103 °C

###

Measured melting point, listed per entry.

Known melting point results, listed for orientation:
CN(C)CCCOc1ccc(N2N=C3c4cc(F)ccc4CCC3CC2=O)cc1 (stereo unspecified) = 118 to 120 °C
CCOC(=O)CSc1nccc(NCc2ccc(Cl)cc2)n1 = 175 to 178 °C
COc1ccc(NC(=O)N2CCN(CCc3ccc(-c4cccc(N)n4)cc3)CC2)cc1 = 182 to 184 °C
O=S(=O)(Nc1ccc(Cl)cc1-c1cc(-c2ccc(F)cc2F)on1)C(F)(F)F = 117 to 119 °C
CCCCCCCCc1ccc(C(=O)Cc2cccc(C(=O)O)c2)cc1 = 103 to 110 °C
CS(=O)(=O)c1nc(Cl)c(-c2c(F)cc(F)cc2F)c(N2CCCO2)n1 = 210 to 219 °C
CC(C)(C)OC(=O)NC(C(=O)O)c1c[nH]c2ccccc12 (stereo unspecified) = 144 °C
CCCCCNS(=O)(=O)NC(=O)CCc1ccc(OCCOC)cc1Oc1ncc(C(F)(F)F)cc1Cl = 153 to 154 °C
c1ccc(-c2cc3ccccc3n2-c2ccccc2)cc1 = 78 to 80 °C
CCCNC(=O)c1cnc2cccc(C)n2c1=O = 158 to 160 °C

# melting point (compound: Cc1cc(OC=CCC(F)(F)F)nc(Oc2cc(C(F)(F)F)nn2C)c1 ) is 56 °C
